- target_entity: human FXR (NR1H4) (Homo sapiens, UniProt Q96RI1)
- Construct: host or cells: CHO (Chinese hamster ovary) reporter cells
- Sequence (Q96RI1 1-486): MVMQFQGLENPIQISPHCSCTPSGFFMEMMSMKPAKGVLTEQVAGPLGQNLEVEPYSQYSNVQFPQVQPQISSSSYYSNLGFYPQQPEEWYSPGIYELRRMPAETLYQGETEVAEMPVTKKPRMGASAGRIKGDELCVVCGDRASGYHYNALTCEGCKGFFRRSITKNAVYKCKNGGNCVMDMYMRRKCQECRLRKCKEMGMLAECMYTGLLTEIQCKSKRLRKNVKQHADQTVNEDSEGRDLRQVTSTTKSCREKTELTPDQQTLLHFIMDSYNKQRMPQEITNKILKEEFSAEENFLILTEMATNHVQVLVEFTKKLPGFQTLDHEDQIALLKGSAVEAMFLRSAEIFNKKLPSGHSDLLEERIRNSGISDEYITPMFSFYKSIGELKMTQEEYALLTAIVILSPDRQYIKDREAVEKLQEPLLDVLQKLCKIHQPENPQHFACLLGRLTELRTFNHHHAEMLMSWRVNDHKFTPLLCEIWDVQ
- protocol_description: Human FXR (NR1H4) Assay: Gal4 promoter driven luciferase reporter transactivation in CHO cells (Indigo Bioscience kit IB00601); as to Efficacy (%): efficacy normalized to CDCA set as 100%
- Assay type: cell-based
- recorded_conditions: CHO; read-out: Efficacy (%)
Consider the following compounds and their measured Emax readings.

compound | Emax, %
Fc1cc(-c2nn[nH]n2)ccc1N1C2CCC1CC(NCc1c(-c3c(Cl)cccc3Cl)noc1C1CC1)C2 (stereo not shown) | 155
COc1cc2nc(N3C4CCC3CC(NCc3c(-c5c(Cl)cccc5Cl)noc3C3CC3)C4)sc2cc1C(=O)O (stereo not shown) | 73.5
CC(C)Oc1cc(C(=O)O)cc2sc(N3C4CCC3CC(NCc3c(-c5ccccc5C(F)(F)F)noc3C3CC3)C4)nc12 (stereo not shown) | 125
COC(=O)c1cc(OC(F)F)c2nc(N3C4CCC3CC(NCc3c(-c5c(Cl)cccc5Cl)noc3C3CC3)C4)sc2c1 (stereo not shown) | 73
O=C(O)c1cccc(N2CCN(Cc3c(-c4c(Cl)cccc4Cl)noc3C3CC3)CC2)c1 | 15
CC1(S(=O)(=O)NC(=O)c2cc(C3CC3)c3nc(N4C5CCC4CC(NCc4c(-c6ccccc6OC(F)(F)F)noc4C4CC4)C5)sc3c2)CC1 (stereo not shown) | 122
CC(C)(C)c1ccc(S(=O)(=O)NC(=O)c2cccc(N3CCN(Cc4c(-c5c(Cl)cccc5Cl)noc4C4CC4)CC3)c2)cc1 | 126

* * *

- target_entity: human FXR (NR1H4) (Homo sapiens)
- Construct: host or cells: CHO (Chinese hamster ovary) reporter cells
- protocol_description: Human FXR (NR1H4) Assay: Gal4 promoter driven luciferase reporter transactivation in CHO cells (Indigo Bioscience kit IB00601); as to Efficacy (%): efficacy normalized to CDCA set as 100%
- Type: cell-based
- recorded_conditions: CHO; read-out: Efficacy (%)

molecule | uom | Emax
O=C(NS(=O)(=O)C1CC1)c1cc(C2CC2)c2nc(N3C4CCC3CC(NCc3c(-c5ccccc5C(F)(F)F)noc3C3CC3)C4)sc2c1 (stereo not drawn) [Example 1414] | % | 89.5
CC(C)Oc1cc(C(=O)NS(=O)(=O)C2CC2)cc2sc(N3CCC(NCc4c(-c5c(Cl)cccc5Cl)noc4C4CC4)CC3)nc12 [Example 400-3] | % | 104
O=C(NCCS(=O)(=O)O)c1cc(F)c2nc(N3C4CCC3CC(NCc3c(-c5c(Cl)cccc5Cl)noc3C3CC3)C4)sc2c1 (stereo not drawn) [Example 200-1] | % | 10
CC(C)Oc1cc(C(=O)NS(=O)(=O)N2CCCCC2)cc2sc(N3C4CCC3CC(NCc3c(-c5c(Cl)cccc5Cl)noc3C3CC3)C4)nc12 (stereo not drawn) [Example 400-20] | % | 43.6
COC(=O)c1ccc2nc(N3C4CCC3CC(NCc3c(-c5c(Cl)cccc5Cl)noc3C3CC3)C4)sc2c1-c1ccccc1 (stereo not drawn) [Example 200-25] | % | 58.5
COC(=O)c1cc2sc(N3C4CCC3CC(NCc3c(-c5c(Cl)cccc5Cl)noc3C3CC3)C4)nc2cc1OC (stereo not drawn) [Example 200-7] | % | 74.5

* * *

- target_entity: human FXR (NR1H4) (Homo sapiens, UniProt Q96RI1)
- Construct: host or cells: CHO (Chinese hamster ovary) reporter cells
- protocol_description: Human FXR (NR1H4) Assay: Gal4 promoter driven luciferase reporter transactivation in CHO cells (Indigo Bioscience kit IB00601)
- Assay type: cell-based
- recorded_conditions: Human FXR (NR1H4) reporter assay, potency ranges
pEC50: −log10 of the molar value.
property_label: pEC50

molecule | result
O=C(O)c1cc(C2CC2)c2nc(N3C4CCC3CC(NCc3c(-c5c(Cl)cccc5Cl)noc3C3CC3)C4)sc2c1 (centres unmarked) [Example 200-30] | > 9.00
O=C(O)c1ccc(N2C3CCC2CC(NCc2c(-c4ccccc4OC(F)(F)F)noc2C2CC2)C3)nc1 (centres unmarked) [Example 597] | 7.00 to 9.00
CC1(S(=O)(=O)NC(=O)c2ccc3nc(N4CCC(NCc5c(-c6c(Cl)cccc6Cl)noc5C5CC5)CC4)sc3c2)CC1 [Example 305] | 6.00 to 7.00
COC(=O)c1ccc2nc(N3C4CCC3CC(NCc3c(-c5c(Cl)cccc5Cl)noc3C3CC3)C4)sc2c1Br (centres unmarked) [Example 200-21] | 7.00 to 9.00
O=C(NS(=O)(=O)C(F)(F)F)c1ccc2nc(N3C4CCC3CC(NCc3c(-c5c(Cl)cccc5Cl)noc3C3CC3)C4)sc2c1 (centres unmarked) [Example 236] | 7.00 to 9.00
Cc1c(C(=O)NS(=O)(=O)C2(C)CC2)ccc2nc(N3C4CCC3CC(NCc3c(-c5c(Cl)cccc5Cl)noc3C3CC3)C4)sc12 (centres unmarked) [Example 400-13] | 7.00 to 9.00
O=C(O)c1ccc2nc(N3CCC(NCc4c(-c5ccccc5OC(F)(F)F)noc4C4CC4)CC3)sc2c1 [Example 638] | 6.00 to 7.00
O=C(O)c1ccc2nc(N3CCN(Cc4c(-c5c(Cl)cccc5Cl)noc4C4CC4)CC3)sc2c1 [Example 172] | 6.00 to 7.00
O=C(NS(=O)(=O)N1CCOCC1)c1ccc2nc(N3C4CCC3CC(NCc3c(-c5c(Cl)cccc5Cl)noc3C3CC3)C4)sc2c1 (centres unmarked) [Example 234] | 6.00 to 7.00
CC1(S(=O)(=O)NC(=O)c2cc3sc(N4C5CCC4CC(NCc4c(-c6c(Cl)cccc6Cl)noc4C4CC4)C5)nc3cc2F)CC1 (centres unmarked) [Example 400-22] | > 9.00
O=C(O)c1cc(F)c2nc(N3CCC(NCc4c(-c5ccccc5OC(F)(F)F)noc4C4CC4)CC3)sc2c1 [Example 642] | 6.00 to 7.00
O=C(NS(=O)(=O)N1CCCCC1)c1cc(F)c2nc(N3C4CCC3CC(NCc3c(-c5c(Cl)cccc5Cl)noc3C3CC3)C4)sc2c1 (centres unmarked) [Example 300] | > 9.00
CC1(S(=O)(=O)NC(=O)c2cc(F)c3nc(N4CCC(NCc5c(-c6c(Cl)cccc6Cl)noc5C5CC5)CC4)sc3c2)CC1 [Example 400-10] | 6.00 to 7.00
[2H]C([2H])([2H])C1(S(=O)(=O)NC(=O)c2cc(F)c3nc(N4C5CCC4CC(NCc4c(-c6c(Cl)cccc6Cl)noc4C4CC4)C5)sc3c2)CC1 (centres unmarked) [Example 296] | > 9.00

* * *

- target_entity: human FXR (NR1H4) (Homo sapiens)
- Sequence (Q96RI1 1-486): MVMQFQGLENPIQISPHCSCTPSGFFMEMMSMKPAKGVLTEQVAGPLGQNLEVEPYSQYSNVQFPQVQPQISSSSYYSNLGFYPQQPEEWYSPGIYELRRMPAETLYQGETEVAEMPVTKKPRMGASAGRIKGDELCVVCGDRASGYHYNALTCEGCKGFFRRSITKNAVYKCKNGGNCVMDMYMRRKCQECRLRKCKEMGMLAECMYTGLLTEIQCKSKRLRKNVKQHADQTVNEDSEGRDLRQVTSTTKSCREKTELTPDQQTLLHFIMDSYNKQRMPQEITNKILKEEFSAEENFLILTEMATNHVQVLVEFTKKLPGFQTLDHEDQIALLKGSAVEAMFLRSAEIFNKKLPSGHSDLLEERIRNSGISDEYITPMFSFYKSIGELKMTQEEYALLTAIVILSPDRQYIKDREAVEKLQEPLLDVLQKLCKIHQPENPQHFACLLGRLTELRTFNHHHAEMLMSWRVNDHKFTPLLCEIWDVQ
- protocol_description: Human FXR (NR1H4) Assay: Gal4 promoter driven luciferase reporter transactivation in CHO cells (Indigo Bioscience kit IB00601)
- recorded_conditions: Human FXR (NR1H4) reporter assay, potency ranges

molecule | EC50
O=C(O)c1ccc2nc(N3C4CCC3CC(NCc3c(-c5ccccc5OC(F)(F)F)noc3C3CC3)C4)ccc2c1 (stereo not shown) | 1 to 100 nM
COC(=O)c1cc(C)c2nc(N3C4CCC3CC(NCc3c(-c5ccccc5C(F)(F)F)noc3C3CC3)C4)sc2c1 (stereo not shown) | 100 to 1000 nM
O=C(O)c1ccc2nc(N3C4CCC3CC(NCc3c(-c5ccccc5OC(F)(F)F)noc3C3CC3)C4)sc2c1 (stereo not shown) | 1 to 100 nM
COc1cc(C(=O)NCCS(=O)(=O)O)cc2sc(N3C4CCC3CC(NCc3c(-c5c(Cl)cccc5Cl)noc3C3CC3)C4)nc12 (stereo not shown) | 1 to 100 nM
